Test: Photostability of the compound assessed as compound degradation after exposure to sunlight
Format: physicochemical
Conditions: read-out: Drug degradation
Measurement Label: degraded (%)
Give the number; % is assumed, so skip it.

Record summary for Cc1cccc(-c2n[nH]cc2-c2ccc3ncn(C)c(=O)c3c2)n1 : reported degraded = 68

---

Experiment: Photostability of the compound assessed as compound remaining after exposure to sunlight
Assay type: physicochemical
Measurement Label: Stability (%)
Give the number; % is assumed, so skip it.

Record summary for CCn1cnc2ccc(-c3ccnn3-c3cccc(C)n3)cc2c1=O : reported Stability = 100

Record summary for Cc1cccc(-c2n[nH]cc2-c2ccc3ncn(C)c(=O)c3c2)n1 : reported Stability = 32

Record summary for Cc1cccc(-n2ncc(C)c2-c2ccc3ncn(C)c(=O)c3c2)n1 : reported Stability = 99

Record summary for Cc1cccc(-n2nc3c(c2-c2ccc4nc[nH]c(=O)c4c2)CCC3)n1 : reported Stability = 100

Record summary for Cc1cccc(-n2nccc2-c2ccc3ncn(C)c(=O)c3c2)n1 : reported Stability = 99.4

Record summary for C=Cn1cnc2ccc(-c3ccnn3-c3cccc(C)n3)cc2c1=O : reported Stability = 100

---

Exercise: state measured IC50 for each of the compounds provided.
Give the number; nM is assumed, so skip it.

Reported IC50 (TGF-beta receptor type-1 (Homo sapiens, UniProt P36897)) for entry Cc1cccc(-n2nc3c(c2-c2ccc4nc[nH]c(=O)c4c2)CCC3)n1 is 5

Reported IC50 (TGF-beta receptor type-1 (Homo sapiens, UniProt P36897)) for entry Cc1cccc(-n2nc(C)cc2-c2ccc3ncn(C)c(=O)c3c2)n1 is 3

Reported IC50 (TGF-beta receptor type-1 (Homo sapiens, UniProt P36897)) for entry Cc1cccc(-n2nccc2-c2ccc3ncn(C)c(=O)c3c2)n1 is 13

Reported IC50 (TGF-beta receptor type-1 (Homo sapiens, UniProt P36897)) for entry Cc1cccc(-n2ncc(C)c2-c2ccc3ncn(C)c(=O)c3c2)n1 is 4

---

Target: TGF-beta receptor type-1 (Mus musculus, UniProt Q64729)
Test: Inhibition of ALK5 in mouse NIH/3T3 cells by smad binding element reporter based assay
pIC50: −log10 of the molar value.
Label Y when pIC50 is at or above 7; otherwise label N.

Q) In plain terms: is recorded pIC50 at least 7 for CCc1cnn(-c2cccc(C)n2)c1-c1ccc2nc[nH]c(=O)c2c1 ?
A) Y

Q) In plain terms: is recorded pIC50 at least 7 for Cc1cccc(-n2nccc2-c2ccc3ncn(C)c(=O)c3c2)n1 ?
A) N

Q) In plain terms: is recorded pIC50 at least 7 for CCn1cnc2ccc(-c3ccnn3-c3cccc(C)n3)cc2c1=O ?
A) N

Q) In plain terms: is recorded pIC50 at least 7 for CCc1cc(-c2ccc3ncn(C)c(=O)c3c2)n(-c2cccc(C)n2)n1 ?
A) N

Q) In plain terms: is recorded pIC50 at least 7 for C=Cn1cnc2ccc(-c3ccnn3-c3cccc(C)n3)cc2c1=O ?
A) Y

Q) In plain terms: is recorded pIC50 at least 7 for Cc1cccc(-n2nc3c(c2-c2ccc4nc[nH]c(=O)c4c2)CCC3)n1 ?
A) Y

Q) In plain terms: is recorded pIC50 at least 7 for Cc1cccc(-n2nc(C)cc2-c2ccc3ncn(C)c(=O)c3c2)n1 ?
A) N

---

Molecular target: TGF-beta receptor type-1 (Mus musculus, UniProt Q64729)
Sequence (Q64729 whole entry): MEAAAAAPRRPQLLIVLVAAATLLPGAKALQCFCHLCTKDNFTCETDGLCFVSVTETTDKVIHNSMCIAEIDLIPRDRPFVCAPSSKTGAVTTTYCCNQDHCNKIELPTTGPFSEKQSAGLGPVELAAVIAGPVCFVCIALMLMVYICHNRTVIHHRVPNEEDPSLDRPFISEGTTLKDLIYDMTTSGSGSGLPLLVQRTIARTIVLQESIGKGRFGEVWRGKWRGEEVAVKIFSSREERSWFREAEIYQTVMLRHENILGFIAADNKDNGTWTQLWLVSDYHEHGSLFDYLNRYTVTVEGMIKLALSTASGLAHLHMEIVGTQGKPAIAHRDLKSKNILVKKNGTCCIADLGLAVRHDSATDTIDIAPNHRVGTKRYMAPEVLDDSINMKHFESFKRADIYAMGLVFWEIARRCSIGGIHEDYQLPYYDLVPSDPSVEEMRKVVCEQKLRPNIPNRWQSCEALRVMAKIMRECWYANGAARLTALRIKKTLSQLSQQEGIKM
Assay: Inhibition of ALK5 in mouse NIH/3T3 cells by smad binding element reporter based assay
Exercise: state measured IC50 for each of the molecules provided.
Give the number; nM is assumed, so skip it.

Record summary for Cc1cccc(-n2nccc2-c2ccc3nc[nH]c(=O)c3c2)n1 : reported IC50 = 73

Record summary for Cc1cccc(-n2ncc(C)c2-c2ccc3nc[nH]c(=O)c3c2)n1 : reported IC50 = 61

Record summary for Cc1cccc(-n2ncc(C)c2-c2ccc3ncn(C)c(=O)c3c2)n1 : reported IC50 = 135
